Source of measurements: paper PMC6964649

- System: D. rerio embryos
- assayText: D. rerio embryotoxicity "photoactivation" assay (ring-closed photoform in darkness, then in situ photoconversion)
- Type: in vivo, Danio rerio
- statedConditions: phototherapeutic safety window; ring-closed 24 h LD50 (dark) divided by ring-open 24 h LD50 (direct application)
Starred links: 1 amine or outer side, 2 acyl side, 3 side chain; linkers in the order of their positions; H or OH if unused. Positions of bridges follow the written chain, without caps; N, C: chain ends. Non-standard residues stand in square brackets, D forms with d. Residues, ends and D or L forms follow the SMILES beside them. X2 = Cc1sc(C(=O)[C@@H]2CCCN2[*:2])cc1C1=C(c2cc(C(=O)[*:1])sc2C)CCC1; Leu(3R-OH) = CC(C)[C@@H](O)[C@H](N)C(=O)O; Orn = NCCC[C@H](N)C(=O)O
Collected LD50(closed)^24h/LD50(open)^24h ratio values appear next to each entry.
No unit in the answer, please; the number alone is enough.

1. Cc1sc2cc1C1=C(CCC1)c1cc(sc1C)C(=O)[C@@H]1CCCN1C(=O)[C@H](C)NC(=O)[C@H](CCCN)NC(=O)[C@H](C(C)C)NC(=O)[C@@H]1CCCN1C(=O)[C@@H](Cc1ccccc1)NC(=O)[C@H](CC(C)C)NC(=O)[C@H](CCCN)NC(=O)[C@H](C(C)C)NC2=O [Peptide 3]    6.6

Please look up its LD50(closed)^24h/LD50(open)^24h ratio: Cc1sc2cc1C1=C(CCC1)c1cc(sc1C)C(=O)[C@@H]1CCCN1C(=O)[C@H](CC(C)C)NC(=O)[C@H](CCCCN)NC(=O)[C@H](C(C)C)NC(=O)[C@H](CCCCN)NC(=O)[C@H](CC(C)C)NC(=O)[C@@H]1CCCN1C(=O)[C@@H](Cc1ccccc1)NC(=O)[C@H](C(C)C)NC(=O)[C@H](CCCCN)NC(=O)[C@H](CC(C)C)NC(=O)[C@H](CCCCN)NC(=O)[C@H](C(C)C)NC2=O [Peptide 16] (VKLKV[dF]PLKVKL; linker N-C via X2)
3.8

Repeat for the following molecule: Cc1sc2cc1C1=C(CCC1)c1cc(sc1C)C(=O)[C@@H]1CCCN1C(=O)[C@H](C(C)C)NC(=O)[C@H](CCCCN)NC(=O)[C@H](C(C)C)NC(=O)[C@H](CC(C)C)NC(=O)[C@H](CCCCN)NC(=O)[C@@H]1CCCN1C(=O)[C@@H](Cc1ccccc1)NC(=O)[C@H](C(C)C)NC(=O)[C@H](CCCCN)NC(=O)[C@H](CC(C)C)NC(=O)[C@H](CCCCN)NC(=O)[C@H](C(C)C)NC2=O [Peptide 18] (VKLKV[dF]PKLVKV; linker N-C via X2)
30.8

Repeat for the following molecule: Cc1sc2cc1C1=C(CCC1)c1cc(sc1C)C(=O)[C@@H]1CCCN1C(=O)[C@H](C)NC(=O)[C@H](CCCN)NC(=O)[C@H](C(C)C)NC(=O)[C@@H]1CCCN1C(=O)[C@@H](Cc1ccccc1)NC(=O)[C@H](CC(C)C)NC(=O)[C@H](CCCN)NC(=O)[C@H](C)NC2=O [Peptide 4] (A[Orn]L[dF]PV[Orn]A; linker N-C via X2)
10.4

Repeat for the following molecule: Cc1sc2cc1C1=C(CCC1)c1cc(sc1C)C(=O)[C@@H]1CCCN1C(=O)[C@H](C(C)C)NC(=O)[C@H](CCCN)NC(=O)[C@H]([C@H](O)C(C)C)NC(=O)[C@@H]1CCCN1C(=O)[C@@H](Cc1ccccc1)NC(=O)[C@H](C(C)C)NC(=O)[C@H](CCCN)NC(=O)[C@H]([C@H](O)C(C)C)NC2=O [Peptide 15] ([Leu(3R-OH)][Orn]V[dF]P[Leu(3R-OH)][Orn]V; linker N-C via X2)
7.8

Repeat for the following molecule: Cc1sc2cc1C1=C(CCC1)c1cc(sc1C)C(=O)[C@@H]1CCCN1C(=O)[C@H](C(C)C)NC(=O)[C@H](CCCN)NC(=O)[C@H]([C@H](O)C(C)C)NC(=O)[C@@H]1CCCN1C(=O)[C@@H](Cc1ccccc1)NC(=O)[C@H](C(C)C)NC(=O)[C@H](CCCN)NC(=O)[C@H](C(C)C)NC2=O [Peptide 13] (V[Orn]V[dF]P[Leu(3R-OH)][Orn]V; linker N-C via X2)
20.5
